Target: T1, Human IL2Rγ extracellular domain expressed with a C-terminal myc-myc-hexahistidine tag (human)
T1 construct: also called hIL-2Rg-MMH; hIL-2RG-MMH
T1 chain: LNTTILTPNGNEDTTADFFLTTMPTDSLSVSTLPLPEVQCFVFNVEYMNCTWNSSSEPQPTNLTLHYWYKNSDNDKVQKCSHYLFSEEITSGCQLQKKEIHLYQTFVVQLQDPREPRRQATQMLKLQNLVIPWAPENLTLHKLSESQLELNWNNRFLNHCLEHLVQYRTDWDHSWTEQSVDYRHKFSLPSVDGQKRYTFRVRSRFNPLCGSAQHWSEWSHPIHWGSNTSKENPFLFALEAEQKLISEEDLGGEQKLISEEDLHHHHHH
Experiment: SPR, captured mAb, 25C, dissociation pH 6.0
readout_type: koff (s⁻¹)

INSERT INTO assay_data (binder, unit_annotation, observed) VALUES
  ('H4H12858P (antibody, human IgG4 S228P, kappa, V domains shown, anti-IL2Rgamma mAb expressed with human IgG4 Fc; also called REGN9433) VH: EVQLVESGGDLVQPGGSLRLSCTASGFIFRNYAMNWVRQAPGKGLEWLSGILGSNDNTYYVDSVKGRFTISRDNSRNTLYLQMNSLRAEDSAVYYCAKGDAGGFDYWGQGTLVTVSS VL: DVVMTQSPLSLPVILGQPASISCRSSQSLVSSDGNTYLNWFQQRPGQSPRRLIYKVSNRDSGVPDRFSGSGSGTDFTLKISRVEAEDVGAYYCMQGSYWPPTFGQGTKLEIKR', 's⁻¹', 0.000377),
  ('H4H13538P (antibody, human IgG4 S228P, kappa, V domains shown, anti-IL2Rgamma mAb expressed with human IgG4 Fc) VH: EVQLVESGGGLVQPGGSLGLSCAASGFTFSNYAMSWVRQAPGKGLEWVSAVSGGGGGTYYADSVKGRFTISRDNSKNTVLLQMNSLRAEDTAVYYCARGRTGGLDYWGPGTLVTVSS VL: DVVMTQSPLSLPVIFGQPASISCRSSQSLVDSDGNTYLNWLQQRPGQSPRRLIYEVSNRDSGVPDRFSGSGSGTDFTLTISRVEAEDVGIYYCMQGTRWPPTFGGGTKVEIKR', 's⁻¹', 0.000417),
  ('H4H12886P (antibody, human IgG4 S228P, kappa, V domains shown, anti-IL2Rgamma mAb expressed with human IgG4 Fc) VH: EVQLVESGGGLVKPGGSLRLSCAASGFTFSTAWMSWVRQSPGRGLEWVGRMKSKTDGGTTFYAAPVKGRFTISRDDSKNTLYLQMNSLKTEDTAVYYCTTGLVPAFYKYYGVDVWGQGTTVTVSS VL: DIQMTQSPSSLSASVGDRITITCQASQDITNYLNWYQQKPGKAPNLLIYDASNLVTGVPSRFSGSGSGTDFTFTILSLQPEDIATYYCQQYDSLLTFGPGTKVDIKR', 's⁻¹', 0.000634),
  ('H4H12899P (antibody, human IgG4 S228P, kappa, V domains shown, anti-IL2Rgamma mAb expressed with human IgG4 Fc) VH: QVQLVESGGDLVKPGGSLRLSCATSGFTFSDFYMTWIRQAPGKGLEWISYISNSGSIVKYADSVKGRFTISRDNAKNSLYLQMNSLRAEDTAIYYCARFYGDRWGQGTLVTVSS VL: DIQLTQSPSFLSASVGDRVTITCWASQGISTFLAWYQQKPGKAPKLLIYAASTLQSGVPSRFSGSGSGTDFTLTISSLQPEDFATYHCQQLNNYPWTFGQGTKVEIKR', 's⁻¹', 0.000568),
  ('H4H12889P (antibody, human IgG4 S228P, kappa, V domains shown, anti-IL2Rgamma mAb expressed with human IgG4 Fc; also called REGN7257) VH: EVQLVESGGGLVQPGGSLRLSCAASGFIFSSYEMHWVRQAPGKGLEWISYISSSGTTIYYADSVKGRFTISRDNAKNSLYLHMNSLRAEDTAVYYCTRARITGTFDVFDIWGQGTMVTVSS VL: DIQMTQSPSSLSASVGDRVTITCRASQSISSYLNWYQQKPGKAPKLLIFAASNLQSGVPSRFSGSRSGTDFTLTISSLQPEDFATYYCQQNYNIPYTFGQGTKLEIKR', 's⁻¹', 0.000437),
  ('H4H12874P (antibody, human IgG4 S228P, kappa, V domains shown, anti-IL2Rgamma mAb expressed with human IgG4 Fc) VH: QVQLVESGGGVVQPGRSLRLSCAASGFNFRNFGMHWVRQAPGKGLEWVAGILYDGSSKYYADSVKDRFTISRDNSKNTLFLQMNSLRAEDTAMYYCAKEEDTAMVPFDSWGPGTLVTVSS VL: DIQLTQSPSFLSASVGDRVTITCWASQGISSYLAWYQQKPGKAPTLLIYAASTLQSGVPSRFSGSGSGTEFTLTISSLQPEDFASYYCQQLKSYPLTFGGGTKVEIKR', 's⁻¹', 0.000724),
  ('H4H13541P (antibody, human IgG4 S228P, kappa, V domains shown, anti-IL2Rgamma mAb expressed with human IgG4 Fc) VH: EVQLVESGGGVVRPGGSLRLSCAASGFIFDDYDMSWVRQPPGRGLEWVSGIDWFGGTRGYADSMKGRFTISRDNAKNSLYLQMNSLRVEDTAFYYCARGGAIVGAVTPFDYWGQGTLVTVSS VL: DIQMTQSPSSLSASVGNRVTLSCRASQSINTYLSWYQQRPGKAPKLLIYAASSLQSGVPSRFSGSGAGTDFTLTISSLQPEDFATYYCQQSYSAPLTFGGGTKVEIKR', 's⁻¹', 0.000469);

Reference source: patent US20200247894A1
